System: Klebsiella pneumoniae A809
Experiment: MIC, agar serial dilution test
Format: cell-based
Conditions: Klebsiella pneumoniae A809; 24 hours at 37° C; read-out: MIC
Quick reference for MIC among some compounds

Check out these entries, answers already filled in.
{"compound": "CC1=C(C(=O)O)N2C(=O)C(NC(=O)Cc3onc(-c4c(Cl)cccc4Cl)c3C)C2SC1 (centres unmarked)", "test_result": "> 100 µg/mL"}
{"compound": "CC1(C)SC2C(NC(=O)C(NC(=O)OCc3ccc([N+](=O)[O-])cc3)c3cc(-c4c(Cl)cccc4Cl)no3)C(=O)N2C1C(=O)O (centres unmarked)", "test_result": "> 100 µg/mL"}
{"compound": "CC1=C(C(=O)O)N2C(=O)C(NC(=O)Cc3onc(-c4c(C)cc(C)cc4C)c3C)C2SC1 (centres unmarked)", "test_result": "> 100 µg/mL"}
{"compound": "CC1(C)SC2C(NC(=O)C(C(N)=O)c3cc(-c4c(Cl)cccc4Cl)no3)C(=O)N2C1C(=O)O (centres unmarked)", "test_result": "> 100 µg/mL"}
{"compound": "CC(=O)OCC1=C(C(=O)O)N2C(=O)C(NC(=O)Cc3onc(-c4c(C)cc(C)cc4C)c3C)C2SC1 (centres unmarked)", "test_result": "> 100 µg/mL"}
{"compound": "Cc1cc(C)c(-c2cc(CC(=O)NC3C(=O)N4C3SC(C)(C)C4C(=O)O)on2)c(C)c1 (centres unmarked)", "test_result": "100 µg/mL"}

[ask] Field request: MIC | item: CC1(C)SC2C(NC(=O)Cc3cc(-c4ccc([N+](=O)[O-])cc4)no3)C(=O)N2C1C(=O)O (centres unmarked)
[reply] 100 µg/mL

[ask] Can you check CC(=O)OCC1=C(C(=O)O)N2C(=O)C(NC(=O)Cc3cc(C(C)(C)C)no3)C2SC1 (centres unmarked) next?
[reply] 12.5 µg/mL

[ask] Would you kindly repeat that for Cc1cc(C)c(-c2cc(C(C)C(=O)NC3C(=O)N4C3SC(C)(C)C4C(=O)O)on2)c(C)c1 (centres unmarked) ?
[reply] 100 µg/mL

[ask] Please do the same for CC1(C)SC2C(NC(=O)C(N)c3cc(-c4c(Cl)cccc4Cl)no3)C(=O)N2C1C(=O)O (centres unmarked) as well.
[reply] > 100 µg/mL

[ask] Now this one: Cc1cc(CC(=O)NC2C(=O)N3[C@@H]2SC(C)(C)[C@@H]3C(=O)O)on1 (some centres unmarked)
[reply] > 100 µg/mL

---

Assay: blood (serum) contents after intramuscular administration in rabbits
Type: in vivo, rabbits (Nieuw Zeelander)
Details: rabbit, im, after 2 hrs., 50 mg/kg intramuscular, average, read-out: Serum level
quantity: concentration at 2 h (ng/mL)
Lab book: enter the figure in ng/mL, no units written.

[ask] I am curious: what concentration at 2 h value has been reported for CC(=O)OCC1=C(C(=O)O)N2C(=O)C(NC(=O)Cc3cc(C)no3)C2SC1 (centres unmarked) ?
[reply] 1700

---

Assay: blood (serum) contents after intramuscular administration in rabbits
Type: in vivo, rabbits (Nieuw Zeelander)
Conditions: rabbit, im, after 1/2 hr., 50 mg/kg intramuscular, average, read-out: Serum level
quantity: concentration at 0.5 h
Reply with the number, then its unit.

[ask] Which concentration at 0.5 h value belongs to CC(=O)OCC1=C(C(=O)O)N2C(=O)[C@@H](NC(=O)Cc3cccs3)[C@H]2SC1 [Cephalotin, reference compound] ?
[reply] 33900 ng/mL

[ask] What do you get for CC(=O)OCC1=C(C(=O)O)N2C(=O)C(NC(=O)Cc3cc(C)no3)C2SC1 (centres unmarked) ?
[reply] 45000 ng/mL

---

Tested on: Staphylococcus aureus L160a (penicillinase-producing)
Examples of compounds with documented MIC follow.
Give a bare numeral; the unit µg/mL is implied.

Solved cases (6 shown):
{"compound": "CCOc1ccc2ccccc2c1C(=O)N[C@@H]1C(=O)N2[C@@H]1SC(C)(C)[C@@H]2C(=O)O [Nafcilline, Nafcillin, reference compound]", "MIC [µg/mL]": 0.5}
{"compound": "CC1(C)SC2C(NC(=O)C(N)c3cc(-c4c(Cl)cccc4Cl)no3)C(=O)N2C1C(=O)O (stereo not shown)", "MIC [µg/mL]": 12.5}
{"compound": "Cc1cc(CC(=O)NC2C(=O)N3[C@@H]2SC(C)(C)[C@@H]3C(=O)O)on1 (stereo partly shown)", "MIC [µg/mL]": 3}
{"compound": "Cc1cc(C)c(-c2cc(C(Cl)C(=O)NC3C(=O)N4C3SC(C)(C)C4C(=O)O)on2)c(C)c1 (stereo not shown)", "MIC [µg/mL]": 25}
{"compound": "CC1=C(C(=O)O)N2C(=O)C(NC(=O)Cc3cc(-c4c(Cl)cccc4Cl)no3)C2SC1 (stereo not shown)", "MIC [µg/mL]": 1.5}
{"compound": "CC1(C)SC2C(NC(=O)C(C(N)=O)c3cc(-c4c(Cl)cccc4Cl)no3)C(=O)N2C1C(=O)O (stereo not shown)", "MIC [µg/mL]": 3}

// next item, MIC requested
[ask] Any idea what MIC was measured for CC(=O)OCC1=C(C(=O)O)N2C(=O)C(NC(=O)Cc3cc(C)no3)C2SC1 (stereo not shown) ?
[reply] 1

---

Test: blood (serum) contents after intramuscular administration in rabbits
Format: in vivo, rabbits (Nieuw Zeelander)
Conditions: rabbit, im, after 1 hr., 50 mg/kg intramuscular, average, read-out: Serum level
Quick reference for concentration at 1 h among some compounds
Just the number in ng/mL, nothing appended.

{"compound": "CC(=O)OCC1=C(C(=O)O)N2C(=O)C(NC(=O)Cc3cc(C)no3)C2SC1 (centres unmarked) [Example XXII]", "concentration at 1 h / ng/mL": 12300}

Let us examine a further case.
[ask] Fill blank: measured concentration at 1 h of the compound CC(=O)OCC1=C(C(=O)O)N2C(=O)[C@@H](NC(=O)Cc3cccs3)[C@H]2SC1 [Cephalotin, reference compound] is ____.
[reply] 8500

---

Tested on: Klebsiella pneumoniae A809
Assay: MIC, agar serial dilution test
Assay type: cell-based
Details: Klebsiella pneumoniae A809; 24 hours at 37° C; read-out: MIC
quantity: MIC (µg/mL)
Supply the numeric figure in µg/mL, leaving out any unit text.

Study these solved cases before continuing.
{"molecule": "Cc1onc(-c2c(Cl)cccc2Cl)c1C(=O)N[C@@H]1C(=O)N2[C@@H]1SC(C)(C)[C@@H]2C(=O)O [Dicloxacillin, reference compound]", "unit_descriptor": "µg/mL", "MIC": 25}
{"molecule": "Cc1onc(-c2ccccc2Cl)c1C(=O)N[C@@H]1C(=O)N2[C@@H]1SC(C)(C)[C@@H]2C(=O)O [Cloxazilline, Cloxacillin, reference compound]", "unit_descriptor": "µg/mL", "MIC": 6}
{"molecule": "CCOc1ccc2ccccc2c1C(=O)N[C@@H]1C(=O)N2[C@@H]1SC(C)(C)[C@@H]2C(=O)O [Nafcilline, Nafcillin, reference compound]", "unit_descriptor": "µg/mL", "MIC": 12.5}

--- query ---
[ask] For CC(=O)OCC1=C(C(=O)O)N2C(=O)C(NC(=O)Cc3cc(-c4c(Cl)cccc4Cl)no3)C2SC1 (stereo not drawn) , what is its reported MIC?
[reply] 12.5

---

Tested on: Diplococcus pneumoniae L 54
Assay: MIC, agar serial dilution test
Format: cell-based
Conditions: Streptococcus pneumoniae, L54; Diplococcus pneumoniae L 54; 24 hours at 37° C; read-out: MIC
Decide using MIC alone. Strictly below 0.1 µg/mL: class 1. Equal to or above 0.1 µg/mL: class 0.

{"compound": "Cc1cc(CC(=O)NC2C(=O)N3[C@@H]2SC(C)(C)[C@@H]3C(=O)O)on1 (stereo partly shown) [Example XXI]", "qualitative_label": "class 0"}

[ask] is_below(MIC, 0.1 µg/mL) for CC(=O)OCC1=C(C(=O)O)N2C(=O)C(NC(=O)Cc3cc(-c4c(C)cc(C)cc4C)no3)C2SC1 (stereo not shown) [VII] ?
[reply] class 1

[ask] // repeat for CC1(C)SC2C(NC(=O)C(C(N)=O)c3cc(-c4c(Cl)cccc4Cl)no3)C(=O)N2C1C(=O)O (stereo not shown) [Example XX] and report
[reply] class 1

---

Test: percentages of bound serum by ultrafiltration and dialysis
Format: in vitro ADME
Details: dialysis, read-out: percentage of bound serum (converted)
quantity: fraction unbound
Give the figure only, with no unit attached.

[ask] Reported fraction unbound for CC(=O)OCC1=C(C(=O)O)N2C(=O)C(NC(=O)Cc3cc(C)no3)C2SC1 (centres unmarked) : what is it?
[reply] 0.72

---

Tested on: Staphylococcus aureus A 321
Assay: in vivo infection test in mice
Details: A321, in Mus musculus, po
Catalogue of ED50 values
Quick reminder: number only, in mg/kg, skip the unit.

{"compound": "CC1(C)SC2C(NC(=O)Cc3cc(-c4c(Cl)cccc4Cl)no3)C(=O)N2C1C(=O)O (stereo not shown) [Example I]", "assayed_system": "Staphylococcus aureus A 321", "unit_descriptor": "mg/kg", "ED50": 126}
{"compound": "CC(=O)OCC1=C(C(=O)O)N2C(=O)C(NC(=O)Cc3cc(-c4c(Cl)cccc4Cl)no3)C2SC1 (stereo not shown) [Example III]", "assayed_system": "Staphylococcus aureus A 321", "unit_descriptor": "mg/kg", "ED50": 61.9}
{"compound": "CCC(Oc1ccccc1)C(=O)N[C@@H]1C(=O)N2[C@@H]1SC(C)(C)[C@@H]2C(=O)O (stereo partly shown) [Propicillin, reference compound]", "assayed_system": "Staphylococcus aureus A 321", "unit_descriptor": "mg/kg", "ED50": 10.8}

[ask] Report ED50 for Cc1onc(-c2c(Cl)cccc2Cl)c1C(=O)N[C@@H]1C(=O)N2[C@@H]1SC(C)(C)[C@@H]2C(=O)O [Dicloxacillin, reference compound] please.
[reply] 92.6

This collection of values is drawn from patent US4010264A.
